Task for the reader: assign each of the following binders its reported EC50 hGLP1R 100% hP (CreLuc).
# TARGET OR TEST SYSTEM: GLP-1 receptor (human (printed as hGLP1R), UniProt P43220 24-463)
# ASSAY: cell-based or functional assay
Starred links: 1 amine or outer side, 2 acyl side, 3 side chain; linkers in the order of their positions; H or OH if unused. Non-standard residues stand in square brackets, D forms with d. Groups on a side chain read outwards from the residue. No end group written: not given here. *: point of attachment. C20 diacid = O=C(O)CCCCCCCCCCCCCCCCCCC(=O)*; C18 diacid = O=C(O)CCCCCCCCCCCCCCCCC(=O)*; γGlu = O=C(O)[C@H](CCC(=O)[*:2])N[*:1]; εLys = N[C@@H](CCCCN[*:1])C(=O)[*:2]; AEEA = NCCOCCOCC(=O)O; Aib = CC(C)(N)C(=O)O
Express your answer as a number followed by its unit.

BINDER	MEASUREMENT KIND	ENDPOINT VALUE
Y[Aib]EGTFTSDYSI[Aib]LEKQAQ[Aib]AFVQWLIK([AEEA-AEEA-γGlu-γGlu-γGlu-γGlu-C18 diacid])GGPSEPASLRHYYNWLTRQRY-NH2 (also: TFA salt) [Compound 173]	EC50 hGLP1R 100% hP (CreLuc)	3.07 nM
Y[Aib]EGTFTSDYSI[Aib]LEKQAQ[Aib]EFVQWLIK([Glu-Glu-Glu-Glu-Glu-Glu-C18 diacid])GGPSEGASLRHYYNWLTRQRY-NH2 (also: TFA salt) [Compound 179]	EC50 hGLP1R 100% hP (CreLuc)	10.5 nM
Y[Aib]EGTFTSDYSI[Aib]LEKQAQ[Aib]AFVQWLIK([εLys-Glu-Glu-Glu-Glu-Glu-C20 diacid])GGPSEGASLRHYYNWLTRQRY-NH2 (also: TFA salt) [Compound 240]	EC50 hGLP1R 100% hP (CreLuc)	6.74 nM

// next entry
Answer with reported EC50 hGLP1R 100% hP (CreLuc) of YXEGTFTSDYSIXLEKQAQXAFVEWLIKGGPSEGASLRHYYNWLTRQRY (Aib at 2, 13, 20; NMeR (N-methyl-L-arginine) at 48; K28 side chain carries C20DA-gGlu-gGlu-gGlu-gGlu-gGlu-gGlu-eLys; C-terminal amide) [Compound 236]
3.42 nM
